Target: Fuc(a1-2)[GalNAc(a1-3)]Gal(b1-4)GlcNAc(b1-2)Man
Experiment: glycan array binding signal (z-score within array); higher = stronger binding
Conditions: glycan notation: IUPAC condensed, linker removed
Shown is part of a subset that was picked to be rich in the strongest signals.

{"binder": "Microvirin-2 (Microcystis aeruginosa) (protein) MPNFSHTCSSINYDPDSTILSAECQARDGEWLPTELRLSDHIGNIDGELQFGDQNFQETCQDCHLEFGDGEQSVWLVCTCQTMDGEWKSTQILLDSQIDNNDSQLEIGGSMPNFSHTCSSINYDPDSTILSAECQARDGEWLPTELRLSDHIGNIDGELQFGDQNFQETCQDCHLEFGDGEQSVWLVCTCQTMDGEWKSTQILLDSQIDNNDSQLEIG", "glycan array binding signal (z-score)": -0.138}
{"binder": "MGL6A (Homo sapiens) (protein) MTRTYENFQYLENKVKVQGFKNGPLPLQSLLQRLCSGPCHLLLSLGLGLLLLVIICVVGFQNSKFQRDLVTLRTDFSNFTSNTVAEIQALTSQGSSLEETIASLKAEVEGFKQERQAVHSEMLLRVQQLVQDLKKLTCQVATLNNNGEEASTEGTCCPVNWVEHQDSCYWFSHSGMSWAEAEKYCQLKNAHLVVINSREEQNFVQKYLGSAYTWMGLSDPEGAWKWVDGTDYATGFQNWKPGQPDDWQGHGLGGGEDCAHFHPDGRWNDDVCQRPYHWVCEAGLGQTSQESH", "glycan array binding signal (z-score)": -0.017}
{"binder": "Jacalin (Artocarpus integrifolia) (protein) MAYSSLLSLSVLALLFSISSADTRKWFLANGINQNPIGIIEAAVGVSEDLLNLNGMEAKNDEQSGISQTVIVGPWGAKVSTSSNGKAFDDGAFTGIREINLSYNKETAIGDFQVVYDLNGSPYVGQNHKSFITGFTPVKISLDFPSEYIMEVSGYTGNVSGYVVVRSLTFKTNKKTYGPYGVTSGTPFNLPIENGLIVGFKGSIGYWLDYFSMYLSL", "glycan array binding signal (z-score)": -0.29}
{"binder": "DC-ASGPR L+GEE (Homo sapiens) (protein) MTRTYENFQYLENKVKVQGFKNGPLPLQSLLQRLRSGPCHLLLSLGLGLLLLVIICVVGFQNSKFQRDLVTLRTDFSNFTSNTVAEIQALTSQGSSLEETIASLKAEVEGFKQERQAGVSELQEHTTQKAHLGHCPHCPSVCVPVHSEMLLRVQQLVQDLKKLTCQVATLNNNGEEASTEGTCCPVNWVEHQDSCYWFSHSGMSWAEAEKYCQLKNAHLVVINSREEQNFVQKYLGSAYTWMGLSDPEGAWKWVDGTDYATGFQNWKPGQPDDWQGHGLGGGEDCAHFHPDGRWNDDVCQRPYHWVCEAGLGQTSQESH", "glycan array binding signal (z-score)": 0.54}
{"binder": "MSMEG3662-2a (Mycobacterium smegmatis), A0QYH7_MYCS2 (protein) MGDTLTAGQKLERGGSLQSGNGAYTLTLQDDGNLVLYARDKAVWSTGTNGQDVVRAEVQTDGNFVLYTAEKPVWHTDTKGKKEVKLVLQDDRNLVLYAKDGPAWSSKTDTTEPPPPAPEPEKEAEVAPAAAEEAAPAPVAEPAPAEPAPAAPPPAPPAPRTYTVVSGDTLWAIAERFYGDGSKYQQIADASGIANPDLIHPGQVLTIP", "glycan array binding signal (z-score)": -0.046}
{"binder": "SP16663B-bot-321-25-321 (Bacteroides ovatus) (protein) DDDDEVTMNSKFYLSTKVFPVDSYEASLSVILKDNSVVVNELQPNYRFVACATERLSKDVKITADSDDNLVSAYNKANDTEYNILPAENYSFTNKTVTIENGESVSGDSIKIELLNVGSLTTEGGYLLPVTISSIEGNNLDALSSNRGVVYLKIQNIHVNVESGQPAEGTLIADRSGWTVKVAPTTRGDAKNLIDGTNSDVARDGGAEYWLTVDIGKVQTLTGIRNKCYASSYSPTAVEVFTSSDGAKWKSIGAVTISKSGTQYIKFSKAVETRYLKYYVKQGPNTVSLTEFDLYAK", "glycan array binding signal (z-score)": 1.04}
{"binder": "SGC, Q9M345 (protein) QNLNFTYNGFHPPLTDISLQGLATVTPNGLLKLTNTSVQKTGHAFCTERIRFKDSQNGNVSSFSTTFVFAIHSQIPTLSGHGIAFVVAPTLGLPFALPSQYIGLFNISNNGNDTNHIFAVEFDTIQSSEFGDPNDNHVGIDLNGLRSANYSTAGYRDDHDKFQNLSLISRKRIQVWIDYDNRSHRIDVTVAPFDSDKPRKPLVSYVRDLSSILLEDMYVGFSSATGSVLSEHFLVGWSFRLNGEAPMLSLSKLPKLPRFEPRRIS", "glycan array binding signal (z-score)": -0.4}
